Test: Solubility of solid state forms in solvents (gravimetric or solvent addition)
Format: physicochemical
Conditions: MeOAc, organic solvent or mixture, thermodynamic from solid, MeOAc, RT; read-out: Solubility
Where a name gives a salt, the structure may show the parent alone.
ENDPOINT NAME: solubility (mg/mL)
Give bare numbers, in mg/mL.

Hello, please tell me recorded solubility for this one: CCOc1ccccc1-c1ccc(N2CCN(C(=O)C3(C(F)(F)F)CCC3)C[C@H]2CC)c(C(=O)N[C@@H]2CN3CCC2CC3)n1 [Pattern D Maleate]
168

###

Assay: Solubility of solid state forms in solvents (gravimetric or solvent addition)
Format: physicochemical
Details: IPA:MtBE (1:1 vol.), organic solvent or mixture, thermodynamic from solid, IPA:MtBE (1:1 vol.), RT; read-out: Solubility
Structures can show the parent of a compound that is named as a salt.
ENDPOINT NAME: solubility

Hello, please tell me recorded solubility for this one: CCOc1ccccc1-c1ccc(N2CCN(C(=O)C3(C(F)(F)F)CCC3)C[C@H]2CC)c(C(=O)N[C@@H]2CN3CCC2CC3)n1 [Pattern D Maleate]
10000 µg/mL

###

Assay: Solubility of solid state forms in solvents (gravimetric or solvent addition)
Type: physicochemical
Settings: organic solvent or mixture, thermodynamic from solid; IPA:MtBE (1:1 vol.), 50° C.; read-out: Solubility
ENDPOINT NAME: solubility

Hello, please tell me recorded solubility for this one: CCOc1ccccc1-c1ccc(N2CCN(C(=O)C3(C(F)(F)F)CCC3)C[C@H]2CC)c(C(=O)N[C@@H]2CN3CCC2CC3)n1.O=C(O)/C=C\C(=O)O [Pattern C Maleate]
36 to 43 mg/mL

###

Experiment: Solubility of solid state forms in solvents (gravimetric or solvent addition)
Assay type: physicochemical
Conditions: MtBE, 50 °C, organic solvent or mixture, thermodynamic from solid, MtBE, 50° C.; read-out: Solubility
Structures can show the parent of a compound that is named as a salt.
ENDPOINT NAME: solubility

Hello, please tell me recorded solubility for this one: CCOc1ccccc1-c1ccc(N2CCN(C(=O)C3(C(F)(F)F)CCC3)C[C@H]2CC)c(C(=O)N[C@@H]2CN3CCC2CC3)n1 [Pattern D Maleate]
< 3000 µg/mL

###

Test: Solubility of solid state forms in solvents (gravimetric or solvent addition)
Assay type: physicochemical
Details: organic solvent or mixture, thermodynamic from solid; ACN, RT; read-out: Solubility
ENDPOINT NAME: solubility

Hello, please tell me recorded solubility for this one: CCOc1ccccc1-c1ccc(N2CCN(C(=O)C3(C(F)(F)F)CCC3)C[C@H]2CC)c(C(=O)N[C@@H]2CN3CCC2CC3)n1.O=C(O)/C=C\C(=O)O [Pattern C Maleate]
> 200 mg/mL

###

Test: Solubility of solid state forms in solvents (gravimetric or solvent addition)
Format: physicochemical
Details: aqueous with cosolvent or surfactant or cyclodextrin, thermodynamic from solid; IPA:water (2:8 vol.), RT; read-out: Solubility
ENDPOINT NAME: solubility

Hello, please tell me recorded solubility for this one: CCOc1ccccc1-c1ccc(N2CCN(C(=O)C3(C(F)(F)F)CCC3)C[C@H]2CC)c(C(=O)N[C@@H]2CN3CCC2CC3)n1.O=C(O)/C=C\C(=O)O [Pattern C Maleate]
> 200 mg/mL

###

Test: Solubility of solid state forms in solvents (gravimetric or solvent addition)
Format: physicochemical
Settings: toluene, organic solvent or mixture, thermodynamic from solid, toluene, RT; read-out: Solubility
ENDPOINT NAME: solubility

Hello, please tell me recorded solubility for this one: CCOc1ccccc1-c1ccc(N2CCN(C(=O)C3(C(F)(F)F)CCC3)C[C@H]2CC)c(C(=O)N[C@@H]2CN3CCC2CC3)n1 [Compound I]
> 500 mg/mL

###

Field: solubility at 24 h. Provide a value for each of the compounds that follow.
Experiment: Solubility in simulated fluids and water
Format: physicochemical
Conditions: FaSSGF (fasted-state simulated gastric fluid), pH 1.49, fassgf or other biorelevant, thermodynamic from solid; FaSSGF, 37° C., 24 h
Where a name gives a salt, the structure may show the parent alone.

[[record]]
compound = "CCOc1ccccc1-c1ccc(N2CCN(C(=O)C3(C(F)(F)F)CCC3)C[C@H]2CC)c(C(=O)N[C@@H]2CN3CCC2CC3)n1.O=C(O)/C=C\\C(=O)O [Pattern C Maleate]"
reported = "> 2500 µg/mL"


Could you now look at the following compound, please?
Hello, please tell me recorded solubility at 24 h for this one: CCOc1ccccc1-c1ccc(N2CCN(C(=O)C3(C(F)(F)F)CCC3)C[C@H]2CC)c(C(=O)N[C@@H]2CN3CCC2CC3)n1 [Pattern D Maleate]
> 2500 µg/mL

###

Test: Solubility of solid state forms in solvents (gravimetric or solvent addition)
Assay type: physicochemical
Details: aqueous with cosolvent or surfactant or cyclodextrin, thermodynamic from solid; ACN:water (2:8 vol.), RT; read-out: Solubility
Procedure: The solubility of certain solid state forms of Compound I was determined in various solvents by either gravimetric solubility or solvent addition. About 25 mg of compound was weighed into vials. Approximately 5 vol. (0.125 mL) of solvent was added to the solids and the mixtures stirred at the designated temperature (RT or 50° C.). Solutions were noted and an additional 0.125 mL of solvent was added to the slurries. […] If a thicker slurry was noted, 0.25 mL of solvent was added (total volume 0.5 mL). […]
ENDPOINT NAME: solubility

Hello, please tell me recorded solubility for this one: CCOc1ccccc1-c1ccc(N2CCN(C(=O)C3(C(F)(F)F)CCC3)C[C@H]2CC)c(C(=O)N[C@@H]2CN3CCC2CC3)n1.O=C(O)/C=C\C(=O)O [Pattern C Maleate]
> 200 mg/mL

###

Assay: Solubility of solid state forms in solvents (gravimetric or solvent addition)
Type: physicochemical
Settings: IPAc, organic solvent or mixture, thermodynamic from solid, IPAc, RT; read-out: Solubility
Counter-ions that a name gives are not always drawn.
ENDPOINT NAME: solubility (µg/mL)
Give bare numbers, in µg/mL.

Hello, please tell me recorded solubility for this one: CCOc1ccccc1-c1ccc(N2CCN(C(=O)C3(C(F)(F)F)CCC3)C[C@H]2CC)c(C(=O)N[C@@H]2CN3CCC2CC3)n1 [Pattern D Maleate]
7000

###

Assay: Solubility of solid state forms in solvents (gravimetric or solvent addition)
Assay type: physicochemical
Settings: organic solvent or mixture, thermodynamic from solid; EtOAc, RT; read-out: Solubility
ENDPOINT NAME: solubility (mg/mL)
Answers are plain numbers, in mg/mL.

Hello, please tell me recorded solubility for this one: CCOc1ccccc1-c1ccc(N2CCN(C(=O)C3(C(F)(F)F)CCC3)C[C@H]2CC)c(C(=O)N[C@@H]2CN3CCC2CC3)n1.O=C(O)/C=C\C(=O)O [Pattern C Maleate]
21

###

Test: Solubility in simulated fluids and water
Assay type: physicochemical
Conditions: thermodynamic from solid; water, 37° C., 24 h
Counter-ions that a name gives are not always drawn.
Field: solubility at 24 h. Provide a value for each of the compounds that follow.

[[record]]
compound = "CCOc1ccccc1-c1ccc(N2CCN(C(=O)C3(C(F)(F)F)CCC3)C[C@H]2CC)c(C(=O)N[C@@H]2CN3CCC2CC3)n1.O=C(O)/C=C\\C(=O)O [Pattern C Maleate]"
endpoint_name = "solubility at 24 h"
reported = "> 2500 µg/mL"


Could you now look at the following compound, please?
Hello, please tell me recorded solubility at 24 h for this one: CCOc1ccccc1-c1ccc(N2CCN(C(=O)C3(C(F)(F)F)CCC3)C[C@H]2CC)c(C(=O)N[C@@H]2CN3CCC2CC3)n1 [Pattern D Maleate]
> 2500 µg/mL

###

Test: Solubility of solid state forms in solvents (gravimetric or solvent addition)
Type: physicochemical
Conditions: EtOH:MtBE (1:9 vol.), organic solvent or mixture, thermodynamic from solid, EtOH:MtBE (1:9 vol.), RT; read-out: Solubility
Counter-ions that a name gives are not always drawn.
ENDPOINT NAME: solubility (µg/mL)
One number for each entry, in µg/mL.

Hello, please tell me recorded solubility for this one: CCOc1ccccc1-c1ccc(N2CCN(C(=O)C3(C(F)(F)F)CCC3)C[C@H]2CC)c(C(=O)N[C@@H]2CN3CCC2CC3)n1 [Pattern D Maleate]
4000

###

Test: Solubility of solid state forms in solvents (gravimetric or solvent addition)
Assay type: physicochemical
Conditions: organic solvent or mixture, thermodynamic from solid; MIBK, RT; read-out: Solubility
ENDPOINT NAME: solubility (mg/mL)
Give bare numbers, in mg/mL.

Hello, please tell me recorded solubility for this one: CCOc1ccccc1-c1ccc(N2CCN(C(=O)C3(C(F)(F)F)CCC3)C[C@H]2CC)c(C(=O)N[C@@H]2CN3CCC2CC3)n1.O=C(O)/C=C\C(=O)O [Pattern C Maleate]
49

###

Experiment: Solubility of solid state forms in solvents (gravimetric or solvent addition)
Type: physicochemical
Conditions: IPA:MtBE (1:9 vol.), organic solvent or mixture, thermodynamic from solid, IPA:MtBE (1:9 vol.), RT; read-out: Solubility
Counter-ions that a name gives are not always drawn.
ENDPOINT NAME: solubility

Hello, please tell me recorded solubility for this one: CCOc1ccccc1-c1ccc(N2CCN(C(=O)C3(C(F)(F)F)CCC3)C[C@H]2CC)c(C(=O)N[C@@H]2CN3CCC2CC3)n1 [Pattern D Maleate]
< 3000 µg/mL
